The following compounds each carry a recorded GI50 for TE-8 cells.
MEASUREMENT LABEL: GI50 (nM)

INSERT INTO assay_data (compound, test_value) VALUES
  ('CNCc1cc2nc(NC(=O)[C@H]3C[C@@H](F)CN3C(=O)C3(c4ccc(OC(F)F)cc4)CCC(F)(F)CC3)ccc2[nH]1 [Example 103]', 304),
  ('O=C(Nc1ccc2[nH]ncc2n1)[C@H]1C[C@@H](F)CN1C(=O)C1(c2ccc(OCC(F)(F)F)c(F)c2)CC(F)(F)C1 [Example 87]', 300),
  ('[2H]C([2H])([2H])Oc1ccc(C2(C(=O)N3C[C@H](F)C[C@@H]3C(=O)Nc3ccc4[nH]ncc4n3)CCC(F)(F)CC2)cc1 [Example 92]', 308);

* * *

Entries with reported IC50 on EP300 (Homo sapiens, UniProt Q09472)
Sequence (Q09472 whole entry): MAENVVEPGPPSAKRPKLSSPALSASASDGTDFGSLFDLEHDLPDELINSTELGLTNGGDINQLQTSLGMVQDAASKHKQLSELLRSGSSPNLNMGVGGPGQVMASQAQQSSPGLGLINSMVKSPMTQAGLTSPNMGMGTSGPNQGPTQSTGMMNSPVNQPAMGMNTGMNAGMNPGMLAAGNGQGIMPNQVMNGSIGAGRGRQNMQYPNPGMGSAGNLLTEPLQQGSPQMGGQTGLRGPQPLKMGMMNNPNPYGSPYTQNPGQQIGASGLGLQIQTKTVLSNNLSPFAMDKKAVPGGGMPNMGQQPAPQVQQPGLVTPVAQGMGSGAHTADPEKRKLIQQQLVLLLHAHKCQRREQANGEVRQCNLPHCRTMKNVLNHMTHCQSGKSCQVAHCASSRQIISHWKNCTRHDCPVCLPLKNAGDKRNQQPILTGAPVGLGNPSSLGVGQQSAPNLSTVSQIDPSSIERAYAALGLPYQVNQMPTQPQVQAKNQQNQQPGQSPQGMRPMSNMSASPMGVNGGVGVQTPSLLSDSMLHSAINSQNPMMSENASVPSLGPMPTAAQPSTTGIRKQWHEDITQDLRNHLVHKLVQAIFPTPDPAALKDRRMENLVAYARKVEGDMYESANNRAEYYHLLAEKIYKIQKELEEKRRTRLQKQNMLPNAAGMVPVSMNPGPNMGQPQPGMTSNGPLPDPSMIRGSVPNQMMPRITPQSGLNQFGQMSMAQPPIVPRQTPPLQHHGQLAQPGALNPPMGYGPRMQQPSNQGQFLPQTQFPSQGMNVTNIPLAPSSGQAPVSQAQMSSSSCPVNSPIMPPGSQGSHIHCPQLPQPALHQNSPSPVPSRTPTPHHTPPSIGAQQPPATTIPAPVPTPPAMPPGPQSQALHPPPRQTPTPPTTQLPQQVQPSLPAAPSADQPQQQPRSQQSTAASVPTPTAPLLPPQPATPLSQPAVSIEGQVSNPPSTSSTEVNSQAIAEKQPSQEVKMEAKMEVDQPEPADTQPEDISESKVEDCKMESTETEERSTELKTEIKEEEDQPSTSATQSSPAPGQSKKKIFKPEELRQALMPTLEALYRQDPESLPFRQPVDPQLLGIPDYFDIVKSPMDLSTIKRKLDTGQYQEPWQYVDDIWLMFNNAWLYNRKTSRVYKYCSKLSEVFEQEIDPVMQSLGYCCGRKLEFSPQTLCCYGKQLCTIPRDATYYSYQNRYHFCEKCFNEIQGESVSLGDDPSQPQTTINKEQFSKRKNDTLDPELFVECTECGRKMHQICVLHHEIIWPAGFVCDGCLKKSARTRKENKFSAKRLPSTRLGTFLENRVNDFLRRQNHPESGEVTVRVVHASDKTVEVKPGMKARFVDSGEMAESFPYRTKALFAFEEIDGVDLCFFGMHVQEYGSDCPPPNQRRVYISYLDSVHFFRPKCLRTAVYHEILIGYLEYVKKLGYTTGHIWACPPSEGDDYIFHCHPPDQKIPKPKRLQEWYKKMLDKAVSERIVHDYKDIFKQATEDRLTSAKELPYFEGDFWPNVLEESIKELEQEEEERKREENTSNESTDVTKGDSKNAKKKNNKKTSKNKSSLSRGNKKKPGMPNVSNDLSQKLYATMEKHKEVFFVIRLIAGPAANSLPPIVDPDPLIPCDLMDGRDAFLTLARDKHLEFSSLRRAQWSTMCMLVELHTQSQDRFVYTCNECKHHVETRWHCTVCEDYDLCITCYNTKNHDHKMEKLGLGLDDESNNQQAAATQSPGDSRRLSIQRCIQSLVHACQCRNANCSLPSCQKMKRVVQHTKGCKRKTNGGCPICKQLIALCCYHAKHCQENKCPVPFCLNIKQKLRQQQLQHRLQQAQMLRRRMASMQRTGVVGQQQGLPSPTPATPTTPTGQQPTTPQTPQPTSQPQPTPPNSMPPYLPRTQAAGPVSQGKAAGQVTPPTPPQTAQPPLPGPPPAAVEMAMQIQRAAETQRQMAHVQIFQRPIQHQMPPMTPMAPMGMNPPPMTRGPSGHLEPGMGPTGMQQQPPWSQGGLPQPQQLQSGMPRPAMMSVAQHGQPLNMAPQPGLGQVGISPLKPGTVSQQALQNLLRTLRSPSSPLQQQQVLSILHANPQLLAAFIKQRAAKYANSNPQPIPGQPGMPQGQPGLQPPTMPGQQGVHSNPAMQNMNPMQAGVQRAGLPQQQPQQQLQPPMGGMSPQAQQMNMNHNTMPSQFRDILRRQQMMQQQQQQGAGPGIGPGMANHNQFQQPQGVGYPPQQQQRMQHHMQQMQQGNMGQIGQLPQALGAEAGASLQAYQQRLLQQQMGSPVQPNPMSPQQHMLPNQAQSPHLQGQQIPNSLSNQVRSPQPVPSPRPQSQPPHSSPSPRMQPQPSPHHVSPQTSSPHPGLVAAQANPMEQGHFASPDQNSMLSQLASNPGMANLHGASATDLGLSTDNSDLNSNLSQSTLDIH
MEASUREMENT LABEL: IC50 (nM)

INSERT INTO measurements (molecule, test_value) VALUES
  ('COc1ccc(C2(C(=O)N3C[C@H](F)C[C@@H]3C(=O)Nc3ccc4[nH]ncc4c3F)CCC(F)(F)CC2)cc1 [Example 100]', 67),
  ('COc1ccc(C2(C(=O)N(C)[C@H](CCO)C(=O)Nc3ccc4[nH]ncc4n3)CCC(F)(F)CC2)cc1 [Example 69]', 157),
  ('COc1c(F)cc(C2(C(=O)N3C[C@H](F)C[C@@H]3C(=O)Nc3ccc4[nH]ncc4n3)CCC(F)(F)CC2)cc1F [Example 62]', 76),
  ('COc1ccc(C2(C(=O)N(C)[C@@H](C(=O)Nc3ccc4[nH]ncc4n3)[C@@H](C)O)CCC(F)(F)CC2)cc1 [Example 78]', 259),
  ('COc1ccc(C2(C(=O)N(C)[C@H](C)C(=O)Nc3ccc4[nH]ncc4n3)CCCCC2)cc1 [Example 46]', 24),
  ('COc1ccc(C2(C(=O)N3CCC[C@@H]3C(=O)Nc3cccc4[nH]ncc34)CCCCCC2)cc1 [Example 54]', 126),
  ('COc1ccc(C2(C(=O)N3C[C@@H](O)C[C@@H]3C(=O)Nc3ccc4[nH]ncc4n3)CCCCC2)cc1 [Example 71]', 99),
  ('COc1ccc(C2(C(=O)N3C[C@H](F)C[C@@H]3C(=O)Nc3ccc4[nH]ncc4n3)CCCCC2)cc1 [Example 35]', 24),
  ('COc1ccc(C2(C(=O)N3CCOCC(Cc4cccc5[nH]ncc45)C3)CCCC2)cc1 (single isomer, unassigned) [Example 108b]', 50),
  ('COc1ccc(C2(C(=O)N3CCC[C@@H]3C(=O)Nc3cccc4[nH]ncc34)CCCC2)cc1 [Example 1]', 176),
  ('O=C(NS(=O)(=O)C1CC1)c1ccc(C2(C(=O)N3C[C@H](F)C[C@@H]3C(=O)Nc3cccc4[nH]ncc34)CCCCC2)cc1 [Example 36]', 17),
  ('COc1ccc(C2(C(=O)N3C[C@H](F)C[C@@H]3C(=O)Nc3ccc4[nH]ncc4n3)CCCCC2)cc1F [Example 37]', 14),
  ('COc1ccc(C2(C(=O)N3C[C@H](O)C[C@@H]3C(=O)Nc3cccc4[nH]ncc34)CCCC2)cc1 [Example 5]', 259),
  ('COc1ccc(C2(C(=O)N3C[C@H](F)C[C@@H]3C(=O)Nc3ccc4[nH]ccc4n3)CCC(F)(F)CC2)cc1 [Example 51]', 41),
  ('CCOc1ccc(C2(C(=O)N3C[C@H](F)C[C@@H]3C(=O)Nc3ccc4[nH]ncc4n3)CC(F)(F)C2)cc1F [Example 88]', 37),
  ('N#Cc1ccccc1NC(=O)[C@H]1C[C@@H](F)CN1C(=O)C1(c2ccc(C(=O)O)cc2)CCCC1 [Example 29]', 20);
